# Test method notes: Inhibition of N-type calcium channel in human IMR-32 cells by FLIPR calcium imaging assay
# Type: cell-based
Property measured: pIC50
Notebook: values listed as pIC50 are -log10 of the concentration (mol/L).

Answered cases to consult:
Molecule: O=C(CNCC1(O)CCCCC1)N1CCc2ccccc2[C@@H]1c1ccccc1
Property measured: pIC50
Recorded measurement: 6.00
//
Molecule: C[C@@H](O)CNCC(=O)N1CCc2ccc(C#N)cc2C1C1CCCCC1 (stereo not given in full)
Property measured: pIC50
Recorded measurement: 5.59
//
Molecule: C[C@@H](O)CNCC(=O)N1CCc2ccccc2C1C1CCCCC1 (stereo not given in full)
Property measured: pIC50
Recorded measurement: 5.70

Proceeding to the next molecule to report its pIC50.
Query: May I ask what pIC50 has been recorded for COc1ccc2c(c1)C(C1CCCCC1)N(C(=O)CNC[C@@H](C)O)CC2 (stereo not given in full) ?
Result: 5.80
